Reference for the values: ChEMBL document CHEMBL4616715

# test_target: C-X-C chemokine receptor type 4 (Homo sapiens, UniProt P61073)
# Sequence (P61073 whole entry): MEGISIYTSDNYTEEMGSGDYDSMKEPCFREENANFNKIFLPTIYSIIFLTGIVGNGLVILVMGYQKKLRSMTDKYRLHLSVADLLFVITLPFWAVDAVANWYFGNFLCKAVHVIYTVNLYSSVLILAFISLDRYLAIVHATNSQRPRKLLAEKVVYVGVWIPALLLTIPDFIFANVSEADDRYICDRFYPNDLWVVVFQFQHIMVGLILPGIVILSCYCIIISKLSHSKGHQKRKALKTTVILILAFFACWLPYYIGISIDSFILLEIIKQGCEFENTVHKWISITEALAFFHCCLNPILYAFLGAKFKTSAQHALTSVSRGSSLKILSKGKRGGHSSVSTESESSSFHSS
# procedure_details: Displacement of [125I]-CXCL12 from human CXCR4 receptor expressed in Jurkat cells incubated for 2 hrs by radiolabeled ligand binding assay
# Assay type: cell-based
measurement_name: IC50

NC(=O)C(c1ccccc1)(c1ccccc1)[C@@H]1CCN(CCOc2ccc(-c3nccs3)cc2)C1 = > 15 µM

---

# test_target: Atypical chemokine receptor 3 (Homo sapiens)
# Sequence (P25106 whole entry): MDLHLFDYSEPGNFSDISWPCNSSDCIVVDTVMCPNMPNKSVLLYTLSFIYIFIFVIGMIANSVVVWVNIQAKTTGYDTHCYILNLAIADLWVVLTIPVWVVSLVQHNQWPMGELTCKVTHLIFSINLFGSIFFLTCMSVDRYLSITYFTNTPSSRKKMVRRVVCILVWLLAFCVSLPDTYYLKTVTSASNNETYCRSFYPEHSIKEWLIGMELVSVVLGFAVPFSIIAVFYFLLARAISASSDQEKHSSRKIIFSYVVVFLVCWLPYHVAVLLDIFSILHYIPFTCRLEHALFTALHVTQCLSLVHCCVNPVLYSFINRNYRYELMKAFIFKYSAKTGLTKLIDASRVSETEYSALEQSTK
# procedure_details: Displacement of [125I]-CXCL12 from human CXCR7 receptor expressed in CHOK1 cell membranes incubated for 2 hrs by radiolabeled ligand binding assay
# Set-up: species or system CHO-K1
# run_parameters: read-out: Ki
pKi: −log10 of the molar value.
measurement_name: pKi

Cc1noc(-c2ccc(OCCN3CC[C@@H](C(C(N)=O)(c4ccccc4)c4ccccc4)C3)cc2)n1 = 4.93
NC(=O)C(c1ccccc1)(c1ccccc1)[C@@H]1CCN(CCOc2ccc(C3=NCCO3)cc2)C1 = 5.18
NC(=O)C(c1ccccc1)(c1ccccc1)[C@@H]1CCN(CCOc2ccc(-c3nnco3)cc2)C1 = 5.39
